System under test: HaloTag-ING2 PHD (mouse Ing2 200-280)
Assay remarks: peptide microarray binding signal (635 nm), min-max normalized on array (fraction of array maximum); higher = stronger binding
Study conditions: peptide region: Unmod H1 variant; binder concentration: 100 nM
Would you mind telling me the reported peptide microarray binding signal of each entry?
Give bare numbers.

Here's what some known entries look like.
Binder	Measured
KPKTAKPKAAKPK [Unmod H1 variant K P K T A K P K A A K P K]	0.00914
KSSKNPKKPKTVK [Unmod H1 variant K S S K N P K K P K T V K]	0.00354
SFRLAKSDEPKKS [Unmod H1 variant S F R L A K S D E P K K S]	0.0192
KTVKPKKVAKSPA [Unmod H1 variant K T V K P K K V A K S P A]	0.00369
KKAKKPKTVKAKP [Unmod H1 variant K K A K K P K T V K A K P]	0.00645
SDMIVAAIQAEKN [Unmod H1 variant S D M I V A A I Q A E K N]	0.00326

For every listed record, write down its peptide microarray binding signal.
1. AGKKAKKPAKAAA [Unmod H1 variant A G K K A K K P A K A A A]
2. KAKSSAKRAGKKK [Unmod H1 variant K A K S S A K R A G K K K]
3. KKLKKATGASKKS [Unmod H1 variant K K L K K A T G A S K K S]

Return:
1. 0.00539
2. 0.00369
3. 0.0034

For every listed record, write down its peptide microarray binding signal.
1. AAGAKKAKSPKKA [Unmod H1 variant A A G A K K A K S P K K A]
2. SHYKVGENADSQI [Unmod H1 variant S H Y K V G E N A D S Q I]
3. KTAKPKKAAPKKK [Unmod H1 variant K T A K P K K A A P K K K]

Return:
[0.00999, 0.00298, 0.00532]
